# assay.protocol: protein stability index of a GFP-peptide fusion (GPS, HEK-293T) (PSI 1-6); higher = more stable;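 further: 24-mer peptide tiles fused after GFP, lentivirally expressed, FACS-sorted into six equal bins by GFP/DsRed ratio, decoded by Illumina sequencing, PSI is the read-weighted mean bin number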
# condition.parameters: treatment: MLN4924 1 uM, 8 h; c terminus: a fixed tail appended
Below, each entry is listed with its recorded protein stability index.
parameter: protein stability index

- GEQPQFWSKTQVLDWISYQVEKNK [ELF3]: 3.29
- TADEIPMEPGDIIGVAGNHWDGYS [FUT8]: 4.16
- DDGKLGATGPMGMRGFKGDRGPKG [SCARA5]: 5.07
- RLAELEAQVRKLELERAQHELLLG [FBF1]: 2.87
- EALVRTVLRAGDREDITEPAICAL [CTNNB1]: 3.6
- MKQRIAEENIMKSNIDKKFSAHYD [FAM50A]: 3.97
- IQFATPNDFCSFYNILKTCRGHTL [CARM1]: 2.24
- QAQIELRLLELMNQHDTEMKYYIV [DYRK1B]: 2.49
- SSTGNTALTYACAGGYVDVVKVLL [ANKRD17]: 2.23
- EPLYNWQATKASLKERFAFLFNSE [BTBD1]: 2.78
- VAQLFNCMVGLLLIALLTWGYIRY [ATL3]: 2.77
- SCPFFETSAAYRYYIDDVFHALVR [RIT1]: 2.54
- PVGSCCSSPAGLSREYKLVMLGAG [RIT1]: 2.24
- FPALLSTGEFLKLPFERLAFVLSS [KLHL13]: 3.08
- EVRDRMLLKITIPNAFIGSDVVDW [DVL3]: 2.46
- KKAFVWARNIGFKVNSKKMLGKYN [ACSBG2]: 2.35
- LGAGGGSLLPGAVEQPQPQFISRF [NEK8]: 3.32
- NKNEVFYQCPDQMARNPAAIDMFI [FBXO3]: 2.65
- AARSPQGLGASTAEISARTMQSMF [PTPRD]: 3.29
